# SYSTEM: T1, soluble recombinant HLA-DR2 molecules (MHC class II HLA-DR2 protein) (human)
# T1 construct: Soluble, empty protein from Drosophila S2 cells, captured on plates by antibody LB3.1; also called MHC class II DR2 protein; recombinant HLA-DR2 protein
# PROCEDURE SUMMARY: competition ELISA on soluble HLA-DR2; competitor biotinylated Cop 1 (1.5 µM)
Reported IC50 by item:

- BINDER: "AEAKYAAYKAAAAAA [synthetic peptide #79]"
  MEASURED QUANTITY: "IC50"
  EXPERIMENTAL RESULT: "> 1000 µM"
- BINDER: "EKAAYAAAAAAAAAA [synthetic peptide #44]"
  MEASURED QUANTITY: "IC50"
  EXPERIMENTAL RESULT: "> 1000 µM"
- BINDER: "AEAKYAAYAAAAAAA [synthetic peptide #60]"
  MEASURED QUANTITY: "IC50"
  EXPERIMENTAL RESULT: "> 1000 µM"

Lookup: IC50 lookup needed for EAKAYEAYKAAAAAA [synthetic peptide #95] , thanks.
Found: > 1000 µM

Lookup: Fill in the blank: the reported IC50 of AEKAYAAYAAAAAAA [synthetic peptide #52] is ____.
Found: > 150 µM

Lookup: Fill in the blank: the reported IC50 of AEKKYAAYAAAAAAA [synthetic peptide #54] is ____.
Found: > 1000 µM

Lookup: Reported IC50 for EAKKYEAYKAAAAAA [synthetic peptide #102] : what is it?
Found: 2 µM

Lookup: For EAKEYAAYAAAAAAA [synthetic peptide #74] , what is its reported IC50?
Found: > 1000 µM

Lookup: Would you mind telling me what IC50 value was observed for AKAEYAAYKAAAAAA [synthetic peptide #81] ?
Found: > 1000 µM

Lookup: Bench note: what IC50 did AKEEYAAAAAAAAAA [synthetic peptide #38] show?
Found: > 1000 µM
